Target: Neuropeptide FF receptor 1 (Homo sapiens)
Sequence (Q9GZQ6 whole entry): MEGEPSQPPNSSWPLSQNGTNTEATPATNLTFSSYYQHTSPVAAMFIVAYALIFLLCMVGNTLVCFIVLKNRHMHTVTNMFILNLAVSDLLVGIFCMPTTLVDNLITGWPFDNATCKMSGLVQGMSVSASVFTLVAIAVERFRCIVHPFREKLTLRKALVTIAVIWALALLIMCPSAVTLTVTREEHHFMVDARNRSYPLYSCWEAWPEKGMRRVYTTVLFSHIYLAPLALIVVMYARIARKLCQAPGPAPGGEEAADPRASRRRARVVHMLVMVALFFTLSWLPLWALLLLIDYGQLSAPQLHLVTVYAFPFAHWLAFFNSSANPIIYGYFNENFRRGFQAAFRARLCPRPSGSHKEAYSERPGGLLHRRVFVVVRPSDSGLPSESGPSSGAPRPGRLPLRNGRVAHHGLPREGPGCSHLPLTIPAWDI
Test: Agonist activity at NPFFR1 (unknown origin) expressed in HEK293-A cells assessed as reduction in forskolin-induced cAMP accumulation incubated for 30 mins by competition PKA binding assay relative to Tyr-D-Ala-Gly-Phe-Gln-Pro-Gln-Arg-Phe-NH2
Assay type: functional, cell-based
Details: filed as agonist
Non-standard residues stand in square brackets, D forms with d. Residues, ends and D or L forms follow the SMILES beside them. NMeY = CN[C@@H](Cc1ccc(O)cc1)C(=O)O; NMeF = CN[C@@H](Cc1ccccc1)C(=O)O

{"columns": ["compound", "Emax (%)"],
 "data": [
  ["CSCC[C@H](NC(=O)[C@H](Cc1ccccc1)NC(=O)CNC(=O)[C@@H](C)NC(=O)[C@@H](N)Cc1ccc(O)cc1)C(=O)N1CCC[C@H]1C(=O)N[C@@H](CCC(N)=O)C(=O)N[C@@H](CCCNC(=N)N)C(=O)N[C@@H](Cc1ccccc1)C(N)=O (H-Y[dA]GFMPQRF-NH2)", 69.2],
  ["C[C@@H](NC(=O)[C@@H](N)Cc1ccc(O)cc1)C(=O)NCC(=O)N(C)[C@@H](Cc1ccccc1)C(=O)NCC(=O)N1CCC[C@H]1C(=O)N[C@@H](CCC(N)=O)C(=O)N[C@@H](CCCNC(=N)N)C(=O)N[C@@H](Cc1ccccc1)C(N)=O (H-Y[dA]G[NMeF]GPQRF-NH2)", 69.8],
  ["CC(C)C[C@H](NC(=O)[C@H](Cc1ccccc1)NC(=O)CNC(=O)[C@@H](C)NC(=O)[C@@H](N)Cc1ccc(O)cc1)C(=O)N1CCC[C@H]1C(=O)N[C@@H](CCC(N)=O)C(=O)N[C@@H](CCCNC(=N)N)C(=O)N[C@@H](Cc1ccccc1)C(N)=O (H-Y[dA]GFLPQRF-NH2)", 68.4],
  ["C[C@@H](NC(=O)[C@@H](N)Cc1ccc(O)cc1)C(=O)NCC(=O)N[C@@H](Cc1ccccc1)C(=O)NCC(=O)N1CCC[C@H]1C(=O)N[C@@H](CCC(N)=O)C(=O)N[C@@H](CCCNC(=N)N)C(=O)N[C@@H](Cc1ccccc1)C(N)=O (H-Y[dA]GFGPQRF-NH2)", 66.8],
  ["N=C(N)NCCC[C@H](NC(=O)[C@H](CCC(N)=O)NC(=O)[C@@H]1CCCN1C(=O)[C@H](CCC(N)=O)NC(=O)[C@H](Cc1ccccc1)NC(=O)CNC(=O)[C@@H](CO)NC(=O)[C@@H](N)Cc1ccc(O)cc1)C(=O)N[C@@H](Cc1ccccc1)C(N)=O", 82.3],
  ["CSCC[C@@H](NC(=O)[C@@H](N)Cc1ccc(O)cc1)C(=O)NCC(=O)N[C@@H](Cc1ccccc1)C(=O)N[C@@H](CCC(N)=O)C(=O)N1CCC[C@H]1C(=O)N[C@@H](CCC(N)=O)C(=O)N[C@@H](CCCNC(=N)N)C(=O)N[C@@H](Cc1ccccc1)C(N)=O", 73.5],
  ["CN[C@@H](Cc1ccc(O)cc1)C(=O)N[C@H](C)C(=O)NCC(=O)N[C@@H](Cc1ccccc1)C(=O)N[C@@H](CCC(N)=O)C(=O)N1CCC[C@H]1C(=O)N[C@@H](CCC(N)=O)C(=O)N[C@@H](CCCNC(=N)N)C(=O)N[C@@H](Cc1ccccc1)C(N)=O (H-[NMeY][dA]GFQPQRF-NH2)", 72.4],
  ["C[C@@H](NC(=O)[C@@H](N)Cc1ccc(O)cc1)C(=O)NCC(=O)N[C@@H](Cc1ccccc1)C(=O)N[C@@H](CCC(N)=O)C(=O)N1CCC[C@H]1C(=O)N[C@@H](CCC(N)=O)C(=O)N[C@@H](CCCNC(=N)N)C(=O)N[C@@H](Cc1ccccc1)C(N)=O (H-Y[dA]GFQPQRF-NH2)", 59.9],
  ["C[C@@H](NC(=O)[C@@H](N)Cc1ccc(O)cc1)C(=O)NCC(=O)N(C)[C@@H](Cc1ccccc1)C(=O)N[C@@H](CCC(N)=O)C(=O)N1CCC[C@H]1C(=O)N[C@@H](CCC(N)=O)C(=O)N[C@@H](CCCNC(=N)N)C(=O)N[C@@H](Cc1ccccc1)C(N)=O (H-Y[dA]G[NMeF]QPQRF-NH2)", 67.7]
]}
